Data provenance: PubChem BioAssay AID1376

molecular target: Bifunctional protein GlmU (Mycobacterium tuberculosis (strain ATCC 25618 / H37Rv)) (UniProt P9WMN3); assay: inhibition of mycobacterial GlmU enzyme – biochemical, glucosamine-1-phosphate acetyltransferase (AID 1376);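 also: 0% = complete reaction with vehicle and 100% = reaction without substrate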; details: M. tuberculosis GlmU acetyltransferase enzyme assay; stronger effect = higher value;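 tested at 30 µM in the primary screen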
Sequence (P9WMN3 whole entry, looked up): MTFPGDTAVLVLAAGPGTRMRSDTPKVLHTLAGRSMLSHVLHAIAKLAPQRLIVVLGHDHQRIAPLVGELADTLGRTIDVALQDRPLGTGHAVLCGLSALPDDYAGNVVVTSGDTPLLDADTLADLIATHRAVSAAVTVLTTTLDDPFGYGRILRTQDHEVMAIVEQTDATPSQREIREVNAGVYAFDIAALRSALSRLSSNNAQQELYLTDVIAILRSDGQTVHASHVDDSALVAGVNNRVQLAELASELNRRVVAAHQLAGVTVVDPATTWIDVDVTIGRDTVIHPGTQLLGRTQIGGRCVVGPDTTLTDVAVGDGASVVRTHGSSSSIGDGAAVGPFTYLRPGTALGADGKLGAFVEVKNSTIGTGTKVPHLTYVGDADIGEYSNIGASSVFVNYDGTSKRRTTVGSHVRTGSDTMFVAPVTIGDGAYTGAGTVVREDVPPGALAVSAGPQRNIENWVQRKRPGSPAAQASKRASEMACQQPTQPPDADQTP
Out of some 220,000 compounds screened, about 530 (0.24%) were called active. This excerpt belongs to a sample that is enriched for actives. Potency and affinity values are given separately.
Reported inhibition is given for each of the following molecules.
Dear colleague, please return just the value in %, with no unit written.

Study these solved cases before continuing.
COc1cc(/C=C2\SC(=Nc3ccc(O)cc3)NC2=O)cc(OC)c1O | 69.2
COC(=O)c1cc(C#N)c(Oc2ccccc2)nc1C | 0.33
Cc1ccc(/C=C2\SC(=S)N(Cc3ccccc3)C2=O)o1 | -1.65
O=C1/C(=C\c2ccc(-c3ccccc3Cl)o2)SC(=S)N1CC1CCCO1 (centres undefined) | 7.34
CCc1nnc(NC(=O)CSc2nc3c(c(=O)n2C)SC(C)C3)s1 (centres undefined) | 3.46
CCOc1cccc(CNCc2ccc(C(=O)O)cc2)c1 | -1.27
Nc1nc(CN2CCN(C(c3ccccc3)c3ccccc3)CC2)nc(Nc2ccccc2)n1 | -2.82
CCNC(=O)CCS(=O)(=O)c1ccc2ccccc2c1 | 5.84

The reported value for COc1cc(NS(=O)(=O)c2ccc(Nc3nc(-c4ccccn4)cs3)cc2)nc(OC)n1 in terms of inhibition is -0.88

What the record says about COc1cccc(Nc2ccccc2C(=O)O)c1 : inhibition is -2.96

Short answer for COc1cc(/C=C2\SC(=Nc3ccc(O)cc3)NC2=O)cc(OC)c1OC : inhibition was -1.9

Documented inhibition of Cc1cccc(N2CCN(C(=O)N3CCCCC3)CC2)c1C : 4.08

Recorded inhibition (molecule Brc1ccc(CSc2ccc3nnc(-c4ccccn4)n3n2)cc1 ): -0.66

Per the records, this molecule ( O=C(/C=C/c1ccco1)c1ccc(NC(=O)C23CC4CC(CC(C4)C2)C3)cc1 ) has inhibition equal to -0.76

The molecule COc1ccc(Nc2cccc(Cl)c2)c(C(=O)O)c1 showed inhibition equal to 13.1
